test system: ME67.3; assay: In vitro inhibitory effect on growth of human ME 67.3 tumor cell line; type: functional, cell-based
Measure Name: IC50 (nM)
Quick reminder: number only, in nM, skip the unit.

Query: Give the measured IC50 of `CN(C)CCCn1c(=O)c2sc3cc(C(=O)Nc4ccccc4)ccc3c2c2ccccc21` .
Response: 190
